These entries and their values trace back to ChEMBL document CHEMBL1126970.

- Organism: Cavia porcellus
- run_description: Selectivity ratio between CCK-B and CCK-A receptor
- Design: reference not given here
endpoint_label: Selectivity ratio
Give bare numbers.

{"columns": ["compound", "endpoint_label", "numeric_result"],
 "data": [
  ["O=C(CN1C(=O)C(NC(=O)Nc2ccc(Cl)cc2)N=C(c2ccccc2)c2ccccc21)NCc1ccccc1 (racemic)", "Selectivity ratio", 24],
  ["COc1cccc(NC(=O)NC2N=C(c3ccccc3)c3ccccc3N(CC(=O)N3CCCC3)C2=O)c1 (racemic)", "Selectivity ratio", 708],
  ["Cc1cccc(NC(=O)NC2N=C(c3cccnc3)c3ccccc3N(C)C2=O)c1 (racemic)", "Selectivity ratio", 25]
]}

Now let's try a different one.
### Prompt Return value of Selectivity ratio for input `COC(=O)c1cccc(NC(=O)N[C@@H]2N=C(c3ccccc3)c3ccccc3N(C)C2=O)c1` , no commentary.
### Response 150
